# measured-on: TACE (Homo sapiens)
# Sequence (P78536 215-824): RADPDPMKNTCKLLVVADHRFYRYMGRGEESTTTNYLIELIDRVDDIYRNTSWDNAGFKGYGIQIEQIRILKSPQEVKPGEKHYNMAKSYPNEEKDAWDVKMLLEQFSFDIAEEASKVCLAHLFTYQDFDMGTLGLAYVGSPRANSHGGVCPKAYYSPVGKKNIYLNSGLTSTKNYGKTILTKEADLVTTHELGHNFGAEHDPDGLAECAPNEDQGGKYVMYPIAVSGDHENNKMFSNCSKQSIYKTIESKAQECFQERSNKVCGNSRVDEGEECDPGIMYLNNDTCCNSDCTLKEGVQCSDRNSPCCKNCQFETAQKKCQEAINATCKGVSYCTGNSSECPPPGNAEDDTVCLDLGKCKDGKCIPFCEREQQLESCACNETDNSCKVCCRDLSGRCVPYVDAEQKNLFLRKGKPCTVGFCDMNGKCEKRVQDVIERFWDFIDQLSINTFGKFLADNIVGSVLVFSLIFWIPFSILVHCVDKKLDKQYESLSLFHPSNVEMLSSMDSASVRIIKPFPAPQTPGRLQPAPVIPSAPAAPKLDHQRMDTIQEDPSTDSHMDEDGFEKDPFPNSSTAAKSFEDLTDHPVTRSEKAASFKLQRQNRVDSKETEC
readout-type: IC50 (nM)
One number for each entry, in nM.

// query IC50 value for entry CC#CCOc1ccc(S(=O)(=O)N(CCN2CCOCC2)[C@H](C)CS)cc1 362

Reference source for all entries: patent EP1149074B1
